Data origin: PubChem BioAssay (NCATS)

Please go through the items and note down their max response.
System: HaCat
Assay: Cytotoxic Profiling of Annotated Libraries Using Quantitative High-Throughput Screening (AID 1296008); also: % is scaled to controls: 0 for no effect and ±100 for the full control effect; nearly all actives have a fitted effect of over 60% in size
Settings: Five cell lines viability, CellTiter-Glo ATP luminescence, 48-72 h; active compounds read low
Inconclusive results are not listed.
Write down the numeric answer in % and omit the unit.

Asked: Which max response value belongs to C=CC1(C)CC(O)C2(CCC3C(C)(C(=O)O)CCCC3(C)C2=O)C1 (stereo not drawn) ?
Given back: -1.18

Asked: C[C@H]1CC[C@@]2(OC1)O[C@H]1CC3C4CC=C5C[C@H](O)C[C@@H](O[C@@H]6O[C@@H](C)[C@H](O)[C@@H](O)[C@H]6O[C@@H]6O[C@@H](C)[C@H](O)[C@@H](O)[C@H]6O)[C@]5(C)C4CC[C@]3(C)[C@H]1[C@@H]2C (stereo partly drawn) ?
Given back: -9.03

Asked: CCC[C@@H]1C[C@@H](C(=O)N[C@H](C(C)Cl)[C@H]2O[C@H](SC)[C@H](O)[C@@H](O)[C@H]2O)N(C)C1 (stereo partly drawn) ?
Given back: 1.16

* * *

System: HeLa
Experiment: Primary qHTS to identify gynecologic anti-cancer compounds using libraries of approved drugs and bioactive compounds (AID 1345084); also: % is scaled to controls: 0 for no effect and ±100 for the full control effect; nearly all actives have a fitted effect of over 55% in size
Settings: Gynecologic cancer cell panel viability, ATPlite luminescence, 48 h; series mostly up to 57.5 µM
Records with an inconclusive call do not appear. The source made the active and inactive calls. Calls follow the shape of the dose curve; as a rule, active = well fitted cell-killing curve with a large enough effect; inconclusive = small, poorly fitted or top-dose-only effect, or effect the other way; inactive = flat fitted curve, though single readings scatter.
Quantity: activity change, negative = cytotoxicity

// worked examples, activity change, negative = cytotoxicity included
C/C=C(\C)C(=O)O[C@H]1[C@H](O)[C@]2(COC(C)=O)[C@H](O)C[C@]3(C)C(=CCC4[C@@]5(C)CC[C@H](O[C@@H]6O[C@H](C(=O)O)[C@@H](O[C@@H]7O[C@H](CO)[C@@H](O)[C@H](O)[C@H]7O)[C@H](O)[C@H]6O[C@@H]6O[C@H](CO)[C@@H](O)[C@H](O)[C@H]6O)[C@](C)(CO)C5CC[C@]43C)[C@@H]2CC1(C)C (stereo not given in full) = 15.8% [at 11.6 µM] (inactive)
CCOc1c2c(c(OCC)c3ccccc13)C(=O)N(c1ccc(CC(=O)NS(=O)(=O)c3ccccc3)cc1)C2 = inactive
C=CCc1ccc(O[C@@H]2O[C@H](CO[C@@H]3O[C@@H](C)[C@H](O)[C@@H](O)[C@H]3O)[C@@H](O)[C@H](O)[C@H]2O)cc1 = inactive
CC1=CC(=O)CC(C)(C)C1CCC(C)OC1OC(COC(=O)c2cc(O)c(O)c(O)c2)C(O)C(O)C1O (stereo not given) = inactive
O=C(Nc1cccnn1)N1CCC(=Cc2cccc(Oc3ccc(C(F)(F)F)cn3)c2)CC1 = inactive
CC(=O)O[C@H]1CC[C@@]2(CI)C(=CC[C@@H]3[C@@H]2CC[C@]2(C)[C@@H]([C@H](C)CCCC(C)C)CC[C@@H]32)C1 = 10.9% [at 11.6 µM] (inactive)

Asked: Which activity change, negative = cytotoxicity value belongs to COC(=O)CC1(O)C(=O)Nc2ccccc21 (stereo not given) ?
Given back: inactive

Asked: `CCOC(=O)[C@H]1O[C@@H]1C(=O)N[C@@H](CC(C)C)C(=O)NCCC(C)C` ?
Given back: inactive

Asked: CC(=O)N1c2ccccc2C2(O)CC3C(=O)NC(CC(C)C)C(=O)N3C12 (stereo not given) ?
Given back: inactive

Asked: O=C(/C=C/c1ccc(O)cc1)OCC1=CC2OC(=O)C3=CO[C@@H](O[C@@H]4O[C@H](CO)[C@@H](O)[C@H](O)[C@H]4O)[C@H]1[C@@H]32 (stereo not given in full) ?
Given back: inactive

Asked: CC1=CC(=O)CC(C)(CO[C@@H]2O[C@H](CO)[C@@H](O)[C@H](O)[C@H]2O)C1(O)/C=C/C(C)=C/C(=O)O (stereo not given in full) ?
Given back: inactive

Asked: COC(=O)C1=CO[C@@H](O[C@@H]2O[C@H](CO)[C@@H](O)[C@H](O)[C@H]2O)[C@@H]2[C@@H](C(=O)OC)[C@@H](O)C(O)[C@H]12 (stereo not given in full) ?
Given back: inactive

Asked: O=c1ccn(C2OC(CO)C(O)C2O)c(=O)[nH]1 (stereo not given) ?
Given back: inactive

Asked: `C[C@@H]1CC[C@H]2C(C)(C)[C@H](O)[C@H](O)C[C@]2(C)[C@@]12Cc1c(O)cc3c(c1O2)CNC3=O` ?
Given back: inactive
